Quick reference for IC50 among some compounds
test system: drug-resistant ovarian cancer cell A2780/T; experiment: Tumor cell proliferation inhibitory activity test in vitro (MTT); assay type: cell-based; details: Homo sapiens, drug-resistant cells, 72 hours

Reference set, count: 3
**Q:** Request: IC50, test system drug-resistant ovarian cancer cell A2780/T, entry `COc1ccc(N(C)c2cc(=O)oc3ccccc23)cc1OC(=O)C1CCCC1`
**A:** 3.34 nM

**Q:** Request body: readout IC50, system drug-resistant ovarian cancer cell A2780/T, query `CC[C@]1(O)C[C@H]2CN(CCc3c([nH]c4ccccc34)[C@@](C(=O)OC)(c3cc4c(cc3OC)N(C=O)[C@H]3[C@@](O)(C(=O)OC)[C@H](OC(C)=O)[C@]5(CC)C=CCN6CC[C@]43[C@@H]65)C2)C1` . Return the value.
**A:** 476 nM

**Q:** Lookup: IC50 / drug-resistant ovarian cancer cell A2780/T / `COc1ccc(N(C)c2nc(C)nc3ccccc23)cc1`
**A:** 4.11 nM

New cases:
**Q:** Write down the reported IC50 of `CC(=O)O[C@H]1C(=O)[C@@]2(C)[C@H]([C@H](OC(=O)c3ccccc3)[C@]3(O)C[C@H](OC(=O)[C@H](O)[C@@H](NC(=O)c4ccccc4)c4ccccc4)C(C)=C1C3(C)C)[C@]1(OC(C)=O)CO[C@@H]1C[C@@H]2O` , test system: drug-resistant ovarian cancer cell A2780/T.
**A:** 8120 nM
